Please provide measured EC50 for the entries that follow.
SYSTEM UNDER TEST: human FXR (NR1H4) (Homo sapiens, UniProt Q96RI1)
Sequence (Q96RI1 1-486): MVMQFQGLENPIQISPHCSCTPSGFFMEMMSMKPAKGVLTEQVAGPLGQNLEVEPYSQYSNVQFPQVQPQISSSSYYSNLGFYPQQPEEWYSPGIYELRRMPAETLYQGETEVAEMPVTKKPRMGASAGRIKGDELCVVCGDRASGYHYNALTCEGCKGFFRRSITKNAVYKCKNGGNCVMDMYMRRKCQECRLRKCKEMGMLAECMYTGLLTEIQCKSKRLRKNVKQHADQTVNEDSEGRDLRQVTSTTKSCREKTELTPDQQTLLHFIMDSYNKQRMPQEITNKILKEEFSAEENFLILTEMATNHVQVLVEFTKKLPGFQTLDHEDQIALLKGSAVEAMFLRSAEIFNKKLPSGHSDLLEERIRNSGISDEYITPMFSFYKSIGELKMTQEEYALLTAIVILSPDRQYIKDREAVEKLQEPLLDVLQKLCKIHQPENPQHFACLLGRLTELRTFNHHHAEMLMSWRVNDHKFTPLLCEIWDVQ
MEASUREMENT PROTOCOL: Human FXR (NR1H4) Assay, luciferase reporter in CHO cells (Indigo Bioscience kit IB00601)
TEST CONTEXT: CHO cells expressing human NR1H4, 22 hours incubation, potency ranges

For orientation, consider the following solved cases.
| MOLECULE | OUTCOME MEASURE | MEASURED RESULT |
| --- | --- | --- |
| CC(C)c1onc(-c2c(Cl)cccc2Cl)c1COc1ccc2cc(-c3cccc(C(=O)NS(=O)(=O)N(C)C)c3)sc2c1 | EC50 | 100 to 1000 nM |
| CC(C)c1onc(-c2c(Cl)cccc2Cl)c1COc1ccc2cc(-c3cccc(C(=O)NS(=O)(=O)c4ccc(C(C)(C)C)cc4)c3)sc2c1 | EC50 | 1000 to 10000 nM |
| CC(C)c1onc(-c2c(Cl)cccc2Cl)c1COc1ccc2cc(-c3cccc(C(=O)O)c3)sc2c1 [Compound (1), reference compound] | EC50 | 100 to 1000 nM |

Shift focus to the following entry.
Q: Supply EC50 value. Item: "CC(C)c1onc(-c2c(Cl)cccc2Cl)c1COc1ccc2cc(-c3cccc(C(=O)NS(=O)(=O)C4CC4)c3)sc2c1"
A: 100 to 1000 nM

----------
SYSTEM UNDER TEST: human FXR (NR1H4) (Homo sapiens, UniProt Q96RI1)
Construct: host or cells: CHO (Chinese hamster ovary) reporter cells
MEASUREMENT PROTOCOL: Human FXR (NR1H4) Assay, luciferase reporter in CHO cells (Indigo Bioscience kit IB00601)
Type: cell-based
TEST CONTEXT: efficacy normalized to CDCA set as 100%
OUTCOME MEASURE: Efficacy (%)

Here is how some compounds turned out for Efficacy (%).
| COMPOUND | OUTCOME MEASURE | MEASURED RESULT |
| --- | --- | --- |
| CC(C)c1onc(-c2c(Cl)cccc2Cl)c1COc1ccc2cc(-c3cccc(C(=O)NS(=O)(=O)N(C)C)c3)sc2c1 [Example 318] | Efficacy (%) | 116% |
| CC(C)c1onc(-c2c(Cl)cccc2Cl)c1COc1ccc2cc(-c3cccc(C(=O)NS(=O)(=O)C4CC4)c3)sc2c1 [Example 303] | Efficacy (%) | 190% |
| CC(C)c1onc(-c2c(Cl)cccc2Cl)c1COc1ccc2cc(-c3cccc(C(=O)O)c3)sc2c1 [Compound (1), reference compound] | Efficacy (%) | 220% |

Q: Give Efficacy (%) for CC(C)c1onc(-c2c(Cl)cccc2Cl)c1COc1ccc2cc(-c3cccc(C(=O)NS(=O)(=O)c4ccc(C(C)(C)C)cc4)c3)sc2c1 [Example 312]
A: 132%
